- System: CDC2L2
- CONDITION: concentration: 1 μM, replicates: in singlicate; n = 1;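 also: KINOMEscan kinase panel screen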

{"columns": ["COMPOUND", "%Inh / %"],
 "data": [
  ["COc1ccc(CNC(=O)NC2CCN(c3ccnc(Nc4ccc(F)cc4)n3)C2)cc1 (stereo not drawn)", 0],
  ["Cc1cccc(-c2nc(Nc3ccc4c(cnn4C)c3)c3ccccc3n2)n1", 6],
  ["Cc1nn2c(=O)cc(N3CCOCC3)nc2n1Cc1cccc(Cl)c1Cl", 6],
  ["COc1ccc(-c2cc3c(C)nc(N)nc3n([C@H]3CC[C@H](OCCO)CC3)c2=O)cn1", 0],
  ["Nc1nccc2scc(-c3ccc4c(c3)CCN4C(=O)Cc3ccccc3)c12", 16],
  ["COc1cccc(C2=C(Nc3cccc(C(=O)O)c3)C(=O)NC2=O)c1", 0],
  ["Nc1ncnc2c1ncn2-c1cccc2ccccc12", 11],
  ["Nc1nc(N)c2nc(-c3ccccc3)[nH]c2n1", 0],
  ["Cc1nnc(-c2ccc3ncn(-c4ccc(S(C)=O)cc4)c3c2)o1 (stereo not drawn)", 10]
]}

* * *

- Test system: HUNK
- CONDITION: concentration: 1 μM, replicates: in singlicate; n = 1
MEASURED ENDPOINT: %Inh (%)

{"columns": ["COMPOUND", "VALUE"],
 "data": [
  ["COc1cc2nccc(Nc3ccc(OCc4ccc(NC(C)=O)cc4)cc3)c2cc1OC.Cl", 21],
  ["COc1cc2ncn(-c3cc(OCCCc4ccccc4)c(C(N)=O)s3)c2cc1OC", 0],
  ["COC(=O)c1c(-c2ccccc2)c2cc(C)ccc2c(=O)n1Cc1ccccc1", 0],
  ["COc1cc2ncn(-c3cc(OCc4ccncc4)c(C(N)=O)s3)c2cc1OC", 0],
  ["Cc1cccc(-c2cc(-c3c[nH]nc3-c3ccccn3)ccn2)c1", 10],
  ["Cc1nnc(-c2ccc3ncn(-c4ccc(S(C)=O)cc4)c3c2)o1 (stereo not shown)", 0],
  ["CN1C(=O)C(Nc2ccccc2)=C(c2ccccc2)C1=O", 67],
  ["COc1cc(Nc2nccc(N3CCC(NC(=O)C4COc5ccccc5O4)C3)n2)cc(OC)c1OC (stereo not shown)", 30],
  ["COc1cccc(C2=C(N(C)c3ccccc3)C(=O)NC2=O)c1", 9],
  ["CCS(=O)(=O)c1ccc(OC)c(Nc2ncc(-c3ccc(F)cc3)o2)c1.Cl", 22],
  ["COc1cc2nccc(Nc3cccc(Oc4ccccc4)c3)c2cc1OC.Cl", 15],
  ["CCC(=O)c1c(-c2ccccc2)c2cc(Cl)ccc2c(=O)n1Cc1cc(S(C)(=O)=O)n(CCC(C)(C)O)n1", 0],
  ["COc1ccc(-c2coc3ccc(-c4nnc(SCc5cccc(C#N)c5)o4)cc23)cc1", 0],
  ["CCC(=O)c1c(-c2ccccc2)c2cc(Cl)ccc2c(=O)n1Cc1cc(C(=O)NC2CC2)n(C)n1", 0],
  ["Nc1nc(N)c2nc(-c3ccccc3)[nH]c2n1", 11],
  ["Cc1ccc(Oc2ccc(Nc3ncnc4cc[nH]c34)cc2C)cn1", 4],
  ["O=C(Nc1ccc2c(c1)OCO2)NC1CCN(c2ccnc(NCc3ccc(F)cc3)n2)CC1", 1],
  ["CN1C(=O)C(Nc2cc(Cl)c(O)c(Cl)c2)=C(c2ccc(Cl)cc2)C1=O", 0],
  ["Fc1cccc(CSc2nnc(-c3ccc4c(c3)CCO4)o2)c1", 0],
  ["CCS(=O)c1ccc(-c2coc3ccc(-c4nnc(C)o4)cc23)cc1 (stereo not shown)", 0],
  ["COc1cc(OC)cc(-c2cc3cnc(N)nc3nc2NC(=O)NC(C)(C)C)c1", 0],
  ["CCC(=O)c1c(-c2ccccc2)c2cc(Cl)ccc2c(=O)n1Cc1cc(S(C)(=O)=O)n(CC(N)=O)n1", 0],
  ["COc1ccc(-c2cc3c(C)nc(N)nc3n([C@H]3CC[C@H](OCCO)CC3)c2=O)cn1", 0],
  ["CCc1nc(-c2cccc(C)c2)c(-c2ccncc2)s1", 0],
  ["Cc1nc(N(C)[C@H]2CN(C(=O)CC#N)CC[C@H]2C)c2cc[nH]c2n1", 0]
]}

* * *

- Tested on: WEE2
- CONDITION: concentration: 1 μM, replicates: in singlicate; n = 1
Collected %Inh values appear next to each entry.

{"columns": ["SAMPLE SMILES", "%Inh (%)"],
 "data": [
  ["CN1C(=O)C(Nc2cc(Cl)c(O)c(Cl)c2)=C(c2ccc(Cl)cc2)C1=O", 15],
  ["Nc1ncnc2c1ncn2-c1cccc2ccccc12", 0],
  ["COc1cc2nccc(Nc3ccc(OCc4ccc(NC(C)=O)cc4)cc3)c2cc1OC.Cl", 12],
  ["COc1cc(Nc2ccnc3ccc(C(F)(F)F)cc23)cc(OC)c1OC", 14],
  ["Cl.NS(=O)(=O)c1cccc(Nc2cc(-c3ccc(F)cc3)n[nH]2)c1", 0],
  ["CCC(=O)c1c(-c2ccccc2)c2cc(Cl)ccc2c(=O)n1Cc1cc(S(C)(=O)=O)n(CC(F)F)n1", 0],
  ["CN(C)c1cc(-c2ccc3c(N)n[nH]c3c2)nc(N)n1", 1],
  ["Cc1nc(N(C)[C@H]2CN(C(=O)CC#N)CC[C@H]2C)c2cc[nH]c2n1", 13],
  ["COc1ccc(-c2coc3ccc(-c4nnc(SCc5cccc(C#N)c5)o4)cc23)cc1", 8],
  ["COc1cc2ncn(-c3cc(OCCCc4ccccc4)c(C(N)=O)s3)c2cc1OC", 4],
  ["CCC(=O)c1c(-c2ccccc2)c2cc(Cl)ccc2c(=O)n1Cc1cc(S(C)(=O)=O)n(CCC(C)(C)O)n1", 0],
  ["CCc1ccc(-c2ccc3c(c2)-c2nn(C)cc2S(=O)(=O)N3C)cc1", 0],
  ["COc1ccc(-n2cnc3c(N)ncnc32)cc1", 0],
  ["COc1cccc(-n2cnc3c(N)ncnc32)c1", 0],
  ["CCC(=O)c1c(-c2ccccc2)c2cc(Cl)ccc2c(=O)n1Cc1ccc(C(=O)O)cc1", 4],
  ["COc1cc(OC)cc(-c2cc3cnc(N)nc3nc2NC(=O)NC(C)(C)C)c1", 5],
  ["O=C(Nc1n[nH]c2cc(-c3ccccc3F)ccc12)C1CC1", 0],
  ["CCC(=O)c1c(-c2ccccc2)c2cc(Cl)ccc2c(=O)n1Cc1cc(S(C)(=O)=O)n(CC(N)=O)n1", 0],
  ["COC(=O)c1c(-c2ccccc2)c2cc(C)ccc2c(=O)n1Cc1ccccc1", 6]
]}

* * *

- Tested on: MEK6
- Construct: gene MAP2K6
- CONDITION: concentration: 1 μM, replicates: in singlicate; n = 1
Quick reference: %Inh of the listed items.

{"columns": ["COMPOUND", "%Inh [%]"],
 "data": [
  ["FC(F)(F)c1ccc(-c2ncn(CCCN3CCOCC3)c2-c2ccncc2)cc1", 0],
  ["CCn1c(-c2ccoc2)nc2cnccc21", 0],
  ["CC(C)(C)c1ccc(C(=O)Nc2cn3cc(-c4ccccc4)ccc3n2)cc1", 0],
  ["COc1cc2ncn(-c3cc(OCCCc4ccccc4)c(C(N)=O)s3)c2cc1OC", 0],
  ["CCS(=O)(=O)c1ccc(OC)c(Nc2ncc(-c3ccc(F)cc3)o2)c1.Cl", 0],
  ["CCS(=O)c1ccc(-c2coc3ccc(-c4nnc(C)o4)cc23)cc1 (stereo not drawn)", 0],
  ["CCC(=O)c1c(-c2ccccc2)c2cc(Cl)ccc2c(=O)n1Cc1ccc(C(=O)O)cc1", 0],
  ["CCC(=O)c1c(-c2ccccc2)c2cc(Cl)ccc2c(=O)n1Cc1cc(S(C)(=O)=O)n(CCC(C)(C)O)n1", 8],
  ["COc1ccc(CNC(=O)NC2CCN(c3ccnc(Nc4ccc(F)cc4)n3)C2)cc1 (stereo not drawn)", 12]
]}

* * *

- Tested on: RIPK2
- CONDITION: concentration: 1 μM, replicates: in singlicate; n = 1
MEASURED ENDPOINT: %Inh (%)

{"columns": ["MOLECULE", "ASSAY SYSTEM", "UNIT LABEL", "VALUE"],
 "data": [
  ["CCC(=O)c1c(-c2ccccc2)c2cc(Cl)ccc2c(=O)n1Cc1ccc(C(=O)O)cc1", "RIPK2", "%", 0],
  ["COc1ccc(-c2coc3ccc(-c4nnc(SCc5cccc(C#N)c5)o4)cc23)cc1", "RIPK2", "%", 12],
  ["Nc1ncnc2c1ncn2-c1cccc2ccccc12 [SKF-97184]", "RIPK2", "%", 7],
  ["Cc1ccc(-c2ccc3c(ccc4sc5c(c43)NC[C@@H](C)N=C5N(C)C)n2)cn1", "RIPK2", "%", 0],
  ["Cc1c(Cn2c(C)nn3c(=O)cc(N4CCO[C@H](C)C4)nc23)cccc1C(F)(F)F [GSK2373690]", "RIPK2", "%", 4],
  ["COc1cc2ncn(-c3cc(OCc4ccncc4Br)c(C(N)=O)s3)c2cc1OC [GW854278]", "RIPK2", "%", 26]
]}
